Assay: inhibitors of DENV2 cytopathic effect, primary screen, cell-based, plate reader, single concentration (AID 651640);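 also: 0% = median of neutral control wells and 100% = median of positive control wells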
Conditions: DENV2-infected cells, cytopathic effect rescue, at 9.99 µM, active compounds read high
In all, about 350,000 compounds went through this assay and about 6,000 (1.7%) were called active. About 5% were inconclusive and are not listed. The full list was thinned out, with actives kept by preference.
measure_name: CPE inhibition (%)

1. O=C(O)C1C2C=CC(C2)C1C(=O)NCc1ccccc1 (stereo unspecified)    23.9
2. COC(=O)C1=C(C)N(Cc2cccc(C(F)(F)F)c2)C(=NCc2ccccc2)NC1c1ccc(Cl)cc1 (stereo unspecified)    27.3
3. COC(=O)CN1C(=O)[C@H]2[C@@H](/C=C/c3ccccc3)N3C(=O)CN(CC4CC4)C(=O)[C@@]3(Cc3ccccc3)[C@H]2C1=O    51
4. O=C(c1ccncc1)N1CC(=O)N2[C@H](CO)[C@@H](c3ccc(-c4cccnc4)cc3)[C@H]2C1    -6.23
5. O=C(C[C@@H]1C[C@@H]2c3cc(NC(=O)NC4CCCC4)ccc3O[C@@H]2[C@@H](CO)O1)NCc1ccccc1    -0.285
6. Nc1ncnc2c1ncn2[C@@H]1O[C@H](C(=O)N[C@@H](CCc2ccccc2)C(=O)N2CCCN(Cc3cccs3)CC2)[C@@H](O)[C@H]1O    -8.03
7. CC(=O)N[C@@H]1CC[C@@H](CCNC(=O)C2CC2)O[C@H]1CO    1.82
8. C[C@@H]1CCCCO[C@@H](CN(C)C(=O)C2CCCCC2)[C@@H](C)CN([C@H](C)CO)C(=O)c2cc(NC(=O)c3ccccc3)ccc2O1    17.1
9. COC(=O)C1=C(C)N(Cc2cccc(C(F)(F)F)c2)C(=NCc2cccc(C(F)(F)F)c2)NC1c1ccccc1C(F)(F)F (stereo unspecified)    19.7
10. COC(=O)CN1C(=O)[C@H]2[C@@H](C3CC3)N3C(=O)CN(Cc4ccc(-c5ccccc5)cc4)C(=O)[C@@]3(Cc3ccccc3)[C@H]2C1=O    3.26
11. COC(=O)c1ccc(NC(=O)CSc2nc(N)c(NC(=O)c3ccc(Br)o3)c(=O)[nH]2)cc1    -4.82
12. COC(=O)CN1C(=O)[C@H]2[C@@H](/C=C/c3ccccc3)N3C(=O)CN(Cc4ccccc4)C(=O)[C@@]3(Cc3ccccc3)[C@H]2C1=O    -11.1
13. COc1ccc2c3c([nH]c2c1)[C@H](CO)N(Cc1cccc(F)c1)CC31CCN(Cc2ccccn2)CC1    5.05
14. CCO[C@@H]1OC(C(=O)NCc2nc3ccccc3[nH]2)=C[C@H](C2CCCCC2)[C@H]1CCCO    5.22
15. CC(=O)c1ccc(S(=O)(=O)NCC2CCN(C(=O)C(=O)c3cccs3)CC2)cc1    -2.02
16. COCCNC(=O)CSc1nc(N)c(NC(=O)c2ccco2)c(=O)[nH]1    96.9
